tested-system: Acetylcholinesterase human (AChE) (Homo sapiens, UniProt P22303)
Construct: purchased Sigma-Aldrich (Poznań, Poland)
Sequence (P22303 32-614): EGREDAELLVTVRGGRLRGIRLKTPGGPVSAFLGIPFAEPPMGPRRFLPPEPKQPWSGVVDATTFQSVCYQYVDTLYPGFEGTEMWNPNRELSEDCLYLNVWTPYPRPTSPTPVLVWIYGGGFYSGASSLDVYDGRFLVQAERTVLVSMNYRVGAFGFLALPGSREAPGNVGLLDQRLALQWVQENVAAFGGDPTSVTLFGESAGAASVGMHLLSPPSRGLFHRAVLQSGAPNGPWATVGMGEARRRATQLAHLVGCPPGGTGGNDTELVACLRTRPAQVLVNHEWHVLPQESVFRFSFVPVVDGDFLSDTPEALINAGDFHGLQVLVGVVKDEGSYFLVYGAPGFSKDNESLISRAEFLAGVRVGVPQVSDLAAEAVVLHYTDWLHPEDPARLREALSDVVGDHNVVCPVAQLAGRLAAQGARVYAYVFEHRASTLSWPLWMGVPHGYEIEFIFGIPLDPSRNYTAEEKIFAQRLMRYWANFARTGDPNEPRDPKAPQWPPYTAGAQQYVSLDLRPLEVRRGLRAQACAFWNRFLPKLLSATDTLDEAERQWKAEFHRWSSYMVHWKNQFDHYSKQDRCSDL
protocol-description: AChE inhibition kinetics, Ellman's method combined with capillary electrophoresis
Assay type: biochemical
condition-description: inhibitor 0.08 mM; acetylthiocholine 1.44 mM; 0.66 mM without inhibitors
amount of 4,4-dithio-bis-acid nitrobenzoic (DBAN) product in the presence of inhibitor overview
The answer should read as a number with its unit following.

May I ask what amount of 4,4-dithio-bis-acid nitrobenzoic (DBAN) product in the presence of inhibitor has been recorded for CC(C)NCC(O)CN1C(=O)C2C(C1=O)C1(C)C(=O)C2(C)C(c2ccccc2)=C1c1ccccc1 (stereo not shown) ? 0.41 mM

May I ask what amount of 4,4-dithio-bis-acid nitrobenzoic (DBAN) product in the presence of inhibitor has been recorded for CCC12C(=O)C(CC)(C(c3ccccc3)=C1c1ccccc1)C1C(=O)N(CC(O)CNC(C)C)C(=O)C12 (stereo not shown) ? 0.52 mM

May I ask what amount of 4,4-dithio-bis-acid nitrobenzoic (DBAN) product in the presence of inhibitor has been recorded for CN(C)CC(O)CN1C(=O)C2C(C1=O)C1(C)C(=O)C2(C)C(c2ccccc2)=C1c1ccccc1 (stereo not shown) ? 0.48 mM

Continuing:
May I ask what amount of 4,4-dithio-bis-acid nitrobenzoic (DBAN) product in the presence of inhibitor has been recorded for CCC12C(=O)C(CC)(C(c3ccccc3)=C1c1ccccc1)C1C(=O)N(CC(O)CN(C)C)C(=O)C12 (stereo not shown) ? 0.58 mM

* * *

1/Vo, mean overview
tested-system: Acetylcholinesterase human (AChE) (Homo sapiens)
Construct: purchased Sigma-Aldrich (Poznań, Poland)
protocol-description: AChE inhibition kinetics, Ellman's method combined with capillary electrophoresis
Format: biochemical
condition-description: inhibitor 0.08 mM; acetylthiocholine 1.44 mM
Give just the number in min/mM; leave the unit off.

Use these answered entries as a reference point.
May I ask what 1/Vo, mean has been recorded for CN(C)CC(O)CN1C(=O)C2C(C1=O)C1(C)C(=O)C2(C)C(c2ccccc2)=C1c1ccccc1 (stereo not shown) [Compound (IV)] ? 3.50

May I ask what 1/Vo, mean has been recorded for CC(C)NCC(O)CN1C(=O)C2C(C1=O)C1(C)C(=O)C2(C)C(c2ccccc2)=C1c1ccccc1 (stereo not shown) [Compound (III)] ? 3.55

May I ask what 1/Vo, mean has been recorded for CCC12C(=O)C(CC)(C(c3ccccc3)=C1c1ccccc1)C1C(=O)N(CC(O)CNC(C)C)C(=O)C12 (stereo not shown) [Compound (I)] ? 3.55

We now examine a further molecule.
May I ask what 1/Vo, mean has been recorded for CCC12C(=O)C(CC)(C(c3ccccc3)=C1c1ccccc1)C1C(=O)N(CC(O)CN(C)C)C(=O)C12 (stereo not shown) [Compound (II)] ? 3.50

* * *

tested-system: Acetylcholinesterase human (AChE) (Homo sapiens, UniProt P22303)
Construct: purchased Sigma-Aldrich (Poznań, Poland)
protocol-description: AChE inhibition kinetics, Ellman's method combined with capillary electrophoresis
Type: biochemical
condition-description: inhibitor 0.08 mM; acetylthiocholine 1.44 mM
test-readout: V0 (reaction speed), mean (mM/min)
Give just the number in mM/min; leave the unit off.

Use these answered entries as a reference point.
May I ask what V0 (reaction speed), mean has been recorded for CC(C)NCC(O)CN1C(=O)C2C(C1=O)C1(C)C(=O)C2(C)C(c2ccccc2)=C1c1ccccc1 (stereo not shown) ? 0.28

May I ask what V0 (reaction speed), mean has been recorded for CN(C)CC(O)CN1C(=O)C2C(C1=O)C1(C)C(=O)C2(C)C(c2ccccc2)=C1c1ccccc1 (stereo not shown) ? 0.29

May I ask what V0 (reaction speed), mean has been recorded for CCC12C(=O)C(CC)(C(c3ccccc3)=C1c1ccccc1)C1C(=O)N(CC(O)CN(C)C)C(=O)C12 (stereo not shown) ? 0.29

We now examine a further compound.
May I ask what V0 (reaction speed), mean has been recorded for CCC12C(=O)C(CC)(C(c3ccccc3)=C1c1ccccc1)C1C(=O)N(CC(O)CNC(C)C)C(=O)C12 (stereo not shown) ? 0.28

* * *

Tilt Angle of Lineweaver-Burk line overview
tested-system: Acetylcholinesterase human (AChE) (Homo sapiens, UniProt P22303)
Construct: purchased Sigma-Aldrich (Poznań, Poland)
protocol-description: AChE inhibition kinetics, Ellman's method combined with capillary electrophoresis
Assay type: biochemical
condition-description: inhibitor 0.06 mM; acetylthiocholine 0.36–46.00 mM; n = 6
Give just the number in °; leave the unit off.

Use these answered entries as a reference point.
May I ask what Tilt Angle of Lineweaver-Burk line has been recorded for CN(C)CC(O)CN1C(=O)C2C(C1=O)C1(C)C(=O)C2(C)C(c2ccccc2)=C1c1ccccc1 (stereo not shown) [Compound (IV)] ? 69.76

May I ask what Tilt Angle of Lineweaver-Burk line has been recorded for CCC12C(=O)C(CC)(C(c3ccccc3)=C1c1ccccc1)C1C(=O)N(CC(O)CN(C)C)C(=O)C12 (stereo not shown) [Compound (II)] ? 69.02

Continuing:
May I ask what Tilt Angle of Lineweaver-Burk line has been recorded for CC(C)NCC(O)CN1C(=O)C2C(C1=O)C1(C)C(=O)C2(C)C(c2ccccc2)=C1c1ccccc1 (stereo not shown) [Compound (III)] ? 70.42

May I ask what Tilt Angle of Lineweaver-Burk line has been recorded for CCC12C(=O)C(CC)(C(c3ccccc3)=C1c1ccccc1)C1C(=O)N(CC(O)CNC(C)C)C(=O)C12 (stereo not shown) [Compound (I)] ? 69.66

* * *

tested-system: Acetylcholinesterase human (AChE) (Homo sapiens, UniProt P22303)
Construct: purchased Sigma-Aldrich (Poznań, Poland)
protocol-description: AChE inhibition kinetics, Ellman's method combined with capillary electrophoresis
Assay type: biochemical
condition-description: inhibitor 0.08 mM; acetylthiocholine 2.88 mM
1/Vo, mean overview
Give just the number in min/mM; leave the unit off.

Use these answered entries as a reference point.
May I ask what 1/Vo, mean has been recorded for CCC12C(=O)C(CC)(C(c3ccccc3)=C1c1ccccc1)C1C(=O)N(CC(O)CNC(C)C)C(=O)C12 (stereo not shown) [Compound (I)] ? 2.30

May I ask what 1/Vo, mean has been recorded for CCC12C(=O)C(CC)(C(c3ccccc3)=C1c1ccccc1)C1C(=O)N(CC(O)CN(C)C)C(=O)C12 (stereo not shown) [Compound (II)] ? 2.30

May I ask what 1/Vo, mean has been recorded for CN(C)CC(O)CN1C(=O)C2C(C1=O)C1(C)C(=O)C2(C)C(c2ccccc2)=C1c1ccccc1 (stereo not shown) [Compound (IV)] ? 2.30

We now examine a further compound.
May I ask what 1/Vo, mean has been recorded for CC(C)NCC(O)CN1C(=O)C2C(C1=O)C1(C)C(=O)C2(C)C(c2ccccc2)=C1c1ccccc1 (stereo not shown) [Compound (III)] ? 2.40

* * *

tested-system: Acetylcholinesterase human (AChE) (Homo sapiens, UniProt P22303)
Construct: purchased Sigma-Aldrich (Poznań, Poland)
protocol-description: AChE inhibition kinetics, Ellman's method combined with capillary electrophoresis
Format: biochemical
condition-description: inhibitor 0.08 mM; acetylthiocholine 0.72 mM
V0 (reaction speed), mean overview
The answer should read as a number with its unit following.

Use these answered entries as a reference point.
Find the measured V0 (reaction speed), mean: item CCC12C(=O)C(CC)(C(c3ccccc3)=C1c1ccccc1)C1C(=O)N(CC(O)CN(C)C)C(=O)C12 (stereo not shown) [Compound (II)] , target or system Acetylcholinesterase human (AChE) (Homo sapiens, UniProt P22303). 0.19 mM/min

Find the measured V0 (reaction speed), mean: item CC(C)NCC(O)CN1C(=O)C2C(C1=O)C1(C)C(=O)C2(C)C(c2ccccc2)=C1c1ccccc1 (stereo not shown) [Compound (III)] , target or system Acetylcholinesterase human (AChE) (Homo sapiens, UniProt P22303). 0.18 mM/min

Find the measured V0 (reaction speed), mean: item CCC12C(=O)C(CC)(C(c3ccccc3)=C1c1ccccc1)C1C(=O)N(CC(O)CNC(C)C)C(=O)C12 (stereo not shown) [Compound (I)] , target or system Acetylcholinesterase human (AChE) (Homo sapiens, UniProt P22303). 0.18 mM/min

We now examine a further compound.
Find the measured V0 (reaction speed), mean: item CN(C)CC(O)CN1C(=O)C2C(C1=O)C1(C)C(=O)C2(C)C(c2ccccc2)=C1c1ccccc1 (stereo not shown) [Compound (IV)] , target or system Acetylcholinesterase human (AChE) (Homo sapiens, UniProt P22303). 0.19 mM/min

* * *

tested-system: Acetylcholinesterase human (AChE) (Homo sapiens)
Construct: purchased Sigma-Aldrich (Poznań, Poland)
protocol-description: AChE inhibition kinetics, Ellman's method combined with capillary electrophoresis
Format: biochemical
condition-description: inhibitor 0.08 mM; acetylthiocholine 0.36–46.00 mM; n = 6
test-readout: Tilt Angle of Lineweaver-Burk line (°)
Give just the number in °; leave the unit off.

May I ask what Tilt Angle of Lineweaver-Burk line has been recorded for CCC12C(=O)C(CC)(C(c3ccccc3)=C1c1ccccc1)C1C(=O)N(CC(O)CN(C)C)C(=O)C12 (stereo not shown) ? 70.02

* * *

tested-system: Acetylcholinesterase human (AChE) (Homo sapiens)
Construct: purchased Sigma-Aldrich (Poznań, Poland)
protocol-description: AChE inhibition kinetics, Ellman's method combined with capillary electrophoresis
Format: biochemical
condition-description: inhibitor 0.08 mM; acetylthiocholine 0.36 mM
1/Vo, mean overview
The answer should read as a number with its unit following.

Use these answered entries as a reference point.
Find the measured 1/Vo, mean: item CCC12C(=O)C(CC)(C(c3ccccc3)=C1c1ccccc1)C1C(=O)N(CC(O)CN(C)C)C(=O)C12 (stereo not shown) [Compound (II)] , target or system Acetylcholinesterase human (AChE) (Homo sapiens). 9.19 min/mM

Find the measured 1/Vo, mean: item CN(C)CC(O)CN1C(=O)C2C(C1=O)C1(C)C(=O)C2(C)C(c2ccccc2)=C1c1ccccc1 (stereo not shown) [Compound (IV)] , target or system Acetylcholinesterase human (AChE) (Homo sapiens). 9.85 min/mM

Find the measured 1/Vo, mean: item CC(C)NCC(O)CN1C(=O)C2C(C1=O)C1(C)C(=O)C2(C)C(c2ccccc2)=C1c1ccccc1 (stereo not shown) [Compound (III)] , target or system Acetylcholinesterase human (AChE) (Homo sapiens). 10.1 min/mM

Continuing:
Find the measured 1/Vo, mean: item CCC12C(=O)C(CC)(C(c3ccccc3)=C1c1ccccc1)C1C(=O)N(CC(O)CNC(C)C)C(=O)C12 (stereo not shown) [Compound (I)] , target or system Acetylcholinesterase human (AChE) (Homo sapiens). 9.30 min/mM

Values were extracted from paper PMC8745342.
